// data source = ChEMBL document CHEMBL5523679

system: Staphylococcus aureus; experiment: Antibacterial activity against Staphylococcus aureus assessed as inhibition zone at 25 ug/ml by diffusion method; format: functional; conditions: read-out: IZ
Quantity kind: zone of inhibition at 25 µg/mL (mm)
Write the number in mm without appending the unit.

{"columns": ["Structure string", "Value reported"],
 "data": [
  ["O=C(Cc1c[nH]c2ccccc12)N1CCN(S(=O)(=O)c2ccccc2)CC1", 13],
  ["O=C(CCc1cn(Cc2ccc(F)cc2)c2ccccc12)N1CCN(S(=O)(=O)c2ccc(F)cc2)CC1", 15]
]}

Turning now to a further compound:
Which measured zone of inhibition at 25 µg/mL belongs to `O=C(Cc1cn(Cc2ccc(F)cc2)c2ccccc12)N1CCN(C(=O)c2ccc(F)cc2)CC1` , tested on Staphylococcus aureus?
15
